Listed molecules paired with reported IC50
system: K562; assay: Cytotoxicity against human K562 cells expressing Bcr-Abl assessed as growth inhibition after 48 hrs by MTT assay; conditions: K562, 48 h

Observed IC50, K562, `Nc1n[nH]c2cccc(-c3ccc(C(=O)N4CCN(C(=O)c5cccc(F)c5)CC4)cc3)c12` : 30.2 µM

Observed IC50, K562, `Nc1n[nH]c2cccc(-c3ccc(C(=O)N4CCN(C(=O)c5ccccc5Br)CC4)cc3)c12` : 47.3 µM

Observed IC50, K562, `Nc1n[nH]c2cccc(-c3ccc(C(=O)N4CCN(C(=O)c5ccccc5Cl)CC4)cc3)c12` : 53.7 µM

Observed IC50, K562, `Nc1n[nH]c2cccc(-c3ccc(C(=O)NCCNC(=O)c4ccc(F)c(F)c4)cc3)c12` : 28.4 µM

Observed IC50, K562, `COc1ccc(C(=O)N2CCN(C(=O)c3ccc(-c4cccc5[nH]nc(N)c45)cc3)CC2)cc1` : 69.7 µM

Observed IC50, K562, `Nc1n[nH]c2cccc(-c3ccc(C(=O)N4CCN(C(=O)c5ccc(F)c(F)c5)CC4)cc3)c12` : 21.5 µM

Observed IC50, K562, `Nc1n[nH]c2cccc(-c3ccc(C(=O)NCCNC(=O)c4cccc(F)c4)cc3)c12` : 26.9 µM

Observed IC50, K562, `COc1cccc(C(=O)N2CCN(C(=O)c3ccc(-c4cccc5[nH]nc(N)c45)cc3)CC2)c1` : 9.6 µM

Observed IC50, K562, `COc1cc(OC)cc(C(=O)N2CCN(C(=O)c3ccc(-c4cccc5[nH]nc(N)c45)cc3)CC2)c1` : 105 µM

----------
molecular target: Bcr/Abl fusion protein (Homo sapiens, UniProt P00519, T315I); test: Inhibition of Bcr-Abl T315I mutant (unknown origin) by ADP-Glo assay
pIC50: −log10 of the molar value.
MEASURE NAME: pIC50

Some solved entries appear below for comparison.
{"SMILES RECORD": "COc1cccc(C(=O)N2CCN(C(=O)c3ccc(-c4cccc5[nH]nc(N)c45)cc3)CC2)c1", "pIC50": "< 4.00"}
{"SMILES RECORD": "Nc1n[nH]c2cccc(-c3ccc(C(=O)NCCNC(=O)c4cccc(C(F)(F)F)c4)cc3)c12", "pIC50": 4.25}
{"SMILES RECORD": "COc1ccccc1C(=O)N1CCN(C(=O)c2ccc(-c3cccc4[nH]nc(N)c34)cc2)CC1", "pIC50": "< 4.00"}
{"SMILES RECORD": "COc1cc(OC)cc(C(=O)N2CCN(C(=O)c3ccc(-c4cccc5[nH]nc(N)c45)cc3)CC2)c1", "pIC50": "< 4.00"}

// below: pIC50 requested for another compound
Observed pIC50, Bcr/Abl fusion protein (Homo sapiens, UniProt P00519, T315I), `COc1ccc(C(=O)NCCNC(=O)c2ccc(-c3cccc4[nH]nc(N)c34)cc2)cc1` : < 4.00

----------
molecular target: Bcr/Abl fusion protein (Homo sapiens); experiment: Inhibition of wild type Bcr-Abl (unknown origin) by ADP-Glo assay
Listed molecules paired with reported pIC50
Field pIC50 (float): negative decimal logarithm of the concentration in molar.

{"SMILES RECORD": "Cc1ccccc1C(=O)N1CCN(C(=O)c2ccc(-c3cccc4[nH]nc(N)c34)cc2)CC1", "MEASURED VALUE": 5.07}
{"SMILES RECORD": "Cc1cccc(C(=O)N2CCN(C(=O)c3ccc(-c4cccc5[nH]nc(N)c45)cc3)CC2)c1", "MEASURED VALUE": 5.63}
{"SMILES RECORD": "COc1ccccc1C(=O)NCCNC(=O)c1ccc(-c2cccc3[nH]nc(N)c23)cc1", "MEASURED VALUE": 6.60}
{"SMILES RECORD": "Nc1n[nH]c2cccc(-c3ccc(C(=O)NCCNC(=O)c4ccccc4Br)cc3)c12", "MEASURED VALUE": 7.51}

// field: pIC50; key: `Cc1ccccc1C(=O)NCCNC(=O)c1ccc(-c2cccc3[nH]nc(N)c23)cc1` ; value = 7.74

// field: pIC50; key: `Nc1n[nH]c2cccc(-c3ccc(C(=O)NCCNC(=O)c4ccc(F)c(F)c4)cc3)c12` ; value = 4.84

// field: pIC50; key: `Nc1n[nH]c2cccc(-c3ccc(C(=O)N4CCN(C(=O)c5cccc(F)c5)CC4)cc3)c12` ; value = 7.07

// field: pIC50; key: `Nc1n[nH]c2cccc(-c3ccc(C(=O)N4CCN(C(=O)c5ccccc5Cl)CC4)cc3)c12` ; value = 7.08

// field: pIC50; key: `Nc1n[nH]c2cccc(-c3ccc(C(=O)N4CCN(C(=O)c5ccc(Cl)cc5Cl)CC4)cc3)c12` ; value = 7.85

// field: pIC50; key: `COc1cccc(C(=O)N2CCN(C(=O)c3ccc(-c4cccc5[nH]nc(N)c45)cc3)CC2)c1` ; value = 4.31

// field: pIC50; key: `Nc1n[nH]c2cccc(-c3ccc(C(=O)N4CCN(C(=O)c5cccc(C(F)(F)F)c5)CC4)cc3)c12` ; value = 5.56

// field: pIC50; key: `Nc1n[nH]c2cccc(-c3ccc(C(=O)NCCNC(=O)c4cccc(C(F)(F)F)c4)cc3)c12` ; value = 6.35

// field: pIC50; key: `Nc1n[nH]c2cccc(-c3ccc(C(=O)N4CCN(C(=O)c5ccc(Cl)cc5)CC4)cc3)c12` ; value = 5.72

// field: pIC50; key: `Nc1n[nH]c2cccc(-c3ccc(C(=O)N4CCN(C(=O)c5ccccc5Br)CC4)cc3)c12` ; value = 6.74

// field: pIC50; key: `COc1ccccc1C(=O)N1CCN(C(=O)c2ccc(-c3cccc4[nH]nc(N)c34)cc2)CC1` ; value = 4.64

----------
Listed compounds paired with reported IC50
biological target: Bcr/Abl fusion protein (Homo sapiens, UniProt P00519, T315I); test: Inhibition of Bcr-Abl T315I mutant (unknown origin) by ADP-Glo assay
Quick reminder: number only, in µM, skip the unit.

Some solved entries appear below for comparison.
{"SMILES RECORD": "Nc1n[nH]c2cccc(-c3ccc(C(=O)N4CCN(C(=O)c5ccccc5Br)CC4)cc3)c12", "IC50 / µM": 0.74}
{"SMILES RECORD": "Nc1n[nH]c2cccc(-c3ccc(C(=O)NCCNC(=O)c4ccccc4Br)cc3)c12", "IC50 / µM": 1.04}
{"SMILES RECORD": "Nc1n[nH]c2cccc(-c3ccc(C(=O)N4CCN(C(=O)c5ccccc5Cl)CC4)cc3)c12", "IC50 / µM": 3.41}
{"SMILES RECORD": "Cc1ccccc1C(=O)NCCNC(=O)c1ccc(-c2cccc3[nH]nc(N)c23)cc1", "IC50 / µM": 28.8}

// field: IC50; key: `Nc1n[nH]c2cccc(-c3ccc(C(=O)N4CCN(C(=O)c5ccc(Cl)cc5)CC4)cc3)c12` ; value = 65.6

// field: IC50; key: `Nc1n[nH]c2cccc(-c3ccc(C(=O)N4CCN(C(=O)c5ccc(F)c(F)c5)CC4)cc3)c12` ; value = 83.5

----------
tested on: K562; assay: Cytotoxicity against human K562 cells expressing Bcr-Abl assessed as growth inhibition after 48 hrs by MTT assay; conditions: K562, 48 h
Listed compounds paired with reported log10 IC50
Transform log10 | Measure IC50 | Unit µM

{"SMILES RECORD": "Nc1n[nH]c2cccc(-c3ccc(C(=O)NCCNC(=O)c4ccccc4Br)cc3)c12", "MEASURED VALUE": 1.12}
{"SMILES RECORD": "COc1ccccc1C(=O)N1CCN(C(=O)c2ccc(-c3cccc4[nH]nc(N)c34)cc2)CC1", "MEASURED VALUE": 1.51}
{"SMILES RECORD": "Nc1n[nH]c2cccc(-c3ccc(C(=O)N4CCN(C(=O)c5ccc(Cl)cc5Cl)CC4)cc3)c12", "MEASURED VALUE": 0.81}

// below: log10 IC50 requested for another compound
// field: log10 IC50; key: `Cc1cccc(C(=O)N2CCN(C(=O)c3ccc(-c4cccc5[nH]nc(N)c45)cc3)CC2)c1` ; value = 1.34

----------
target: Bcr/Abl fusion protein (Homo sapiens, UniProt P00519); experiment: Inhibition of wild type Bcr-Abl (unknown origin) by ADP-Glo assay
MEASURE NAME: IC50

Some solved entries appear below for comparison.
{"SMILES RECORD": "Nc1n[nH]c2cccc(-c3ccc(C(=O)N4CCN(C(=O)c5ccc(F)c(F)c5)CC4)cc3)c12", "MEASURE NAME": "IC50", "MEASURED VALUE": "> 100 µM"}
{"SMILES RECORD": "COc1ccc(C(=O)N2CCN(C(=O)c3ccc(-c4cccc5[nH]nc(N)c45)cc3)CC2)cc1", "MEASURE NAME": "IC50", "MEASURED VALUE": "> 100 µM"}

// below: IC50 requested for another compound
// field: IC50; key: `COc1ccc(C(=O)NCCNC(=O)c2ccc(-c3cccc4[nH]nc(N)c34)cc2)cc1` ; value = > 100 µM
